Tested on: SK-MEL-2 melanoma
Experiment: NCI-60 one-dose screen, 48 h (100 = growth as untreated, 0 = no growth, -100 = all killed)
Settings: 10 µM unless noted
About 83,000 compounds went through this panel and 20% of them were active in at least one assay; those are over-represented in the sample as a whole. Activity calls are given as the source filed them. The calls were made as follows: active = growth percent below 10; inactive = the rest.
Observation type: growth

// worked examples, growth included
INSERT INTO results (molecule, observation_type, endpoint_result) VALUES
  ('COc1ccc(-c2nc(Cl)c3c(C)nn(-c4ccc(F)cc4)c3n2)cc1', 'growth', '91.9% (inactive)'),
  ('CCCc1cc(C(N)=S)ccn1', 'growth', '103% (inactive)');

Then this molecule:
Entry Clc1ccc2c(c1)N(c1ncnc3ccc(-c4cnc5[nH]ccc5c4)cc13)CC2 needs its growth filled in; supply it.
28.3% (inactive)

====

System: NCI-H460 lung
Test: NCI-60 one-dose screen, 48 h
Settings: 10 µM unless noted
This is part of a sample that, as a whole, favours compounds with a hit. Of some 83,000 tested, about 20% had one in any assay. Calls of active or inactive are those of the source. The calls were made as follows: active = growth percent below 10; inactive = the rest.
Outcome (select one): active, inactive

// known answers, use as guide
INSERT INTO results (compound, label_value) VALUES
  ('Clc1ccc2c(NCCN3CCN(c4ccnc(N5CCCC5)n4)CC3)ccnc2c1', 'inactive'),
  ('Clc1ccc(CNc2ccc3nc(CCC4CCCCC4)[nH]c3c2)cc1', 'inactive'),
  ('C=C(CN1CC=CCC1)[C@@H]1CC[C@]2(COC(C)=O)CC[C@]3(C)[C@H](CC[C@@H]4[C@@]5(C)CC[C@H](O)C(C)(C)[C@@H]5CC[C@]43C)[C@@H]12', 'inactive'),
  ('Cc1cnc(C(=O)NNc2nc3sc4c(c3c(=O)[nH]2)C(C)CCC4)cn1 (stereo not drawn)', 'active'),
  ('C[C@@H]1O[C@@H](O[C@H]2[C@@H](OC(=O)[C@]34CCC(C)(C)C[C@H]3C3=CC[C@@H]5[C@@]6(C)C[C@H](O)[C@H](O[C@@H]7O[C@H](CO)[C@@H](O)[C@H](O)[C@H]7O)[C@@](C)(CO)[C@@H]6CC[C@@]5(C)[C@]3(C)C[C@H]4O)OC[C@@H](O)[C@@H]2O)[C@H](O)[C@H](O[C@@H]2OC[C@@H](O)[C@H](O[C@@H]3OC[C@](O)(CO)[C@H]3O[C@@H]3OC[C@@H](O)[C@H](O)[C@H]3O)[C@H]2O)[C@H]1O[C@@H]1OC[C@](O)(CO)[C@H]1O', 'inactive');

Would you mind telling me which call this test gave C=C(C)[C@@H]1CC[C@]2(C(=O)N3CCN(C)CC3)CC[C@]3(C)[C@H](CC[C@@H]4[C@@]5(C)CC(CCCNC(C)=O)(CCCNC(C)=O)[C@H](OC(C)=O)C(C)(C)[C@@H]5CC[C@]43C)[C@@H]12 ?
inactive

Would you mind telling me which call this test gave CC(C)(C)CC(N)=O ?
inactive

Would you mind telling me which call this test gave Cc1ccc(C(=O)Nc2ccc(CN3CCN(C)CC3)c(C(F)(F)F)c2)cc1C#Cc1cnc(N)cc1C#N ?
active

====

This section presents compounds with their documented growth values.
Test system: HCT-15 colon
Test: NCI-60 one-dose screen, 48 h (100 = growth as untreated, 0 = no growth, -100 = all killed)
Settings: 10 µM unless noted
About 83,000 compounds went through this panel and 20% of them were active in at least one assay; those are over-represented in the sample as a whole.
Only the number, expressed in %, is required.

INSERT INTO measurements (compound, measurement_unit, endpoint_result) VALUES
  ('C=C[C@]1(C)C=C2CC[C@@H]3C(C)(C)C(=O)CC[C@@]3(C)[C@@H]2CC1', '%', 106),
  ('COc1cc(/C=C/C(=O)c2ccc(NC(=O)CSc3nnc(-c4cc(-c5ccccc5)nc5ccccc45)n3-c3ccccc3)cc2)cc(OC)c1OC', '%', 65.9),
  ('Cc1n(Cc2ccc3ccccc3c2)c(Cl)c(Cl)[n+]1Cc1ccc2ccccc2c1', '%', 92.5),
  ('C[C@@H]1O[C@@H](O[C@H]2[C@@H](OC(=O)[C@]34CCC(C)(C)C[C@H]3C3=CC[C@@H]5[C@@]6(C)C[C@H](O)[C@H](O[C@@H]7O[C@H](CO)[C@@H](O)[C@H](O)[C@H]7O)[C@@](C)(CO)[C@@H]6CC[C@@]5(C)[C@]3(C)C[C@H]4O)OC[C@@H](O)[C@@H]2O)[C@H](O)[C@H](O[C@@H]2OC[C@@H](O)[C@H](O[C@@H]3OC[C@](O)(CO)[C@H]3O[C@@H]3OC[C@@H](O)[C@H](O)[C@H]3O)[C@H]2O)[C@H]1O[C@@H]1OC[C@](O)(CO)[C@H]1O', '%', 86.4),
  ('O=C(CCN1CCOCC1)Nc1cccc(-n2cc(-c3ccncc3)c(-c3ccc(Cl)c(O)c3)n2)c1', '%', 28.5);

Entry COc1ccc(NC(=O)Nc2ccccc2CNc2nc(Nc3ccc(OCCN4CCCC4)cc3)ncc2Cl)cc1 needs its growth filled in; supply it.
5.09

Entry CCN1CCN(CC(=O)Nc2nc3ccc(NCc4ccc(C)cc4)cc3s2)CC1 needs its growth filled in; supply it.
1.79

Entry Nc1nc(N)c2c(n1)NC(c1cccc(Nc3ccnc4cc(C(F)(F)F)ccc34)c1)CC(c1ccc(F)cc1)=N2 (stereo not drawn) needs its growth filled in; supply it.
21.3
